Listed next: entries and their corresponding AUC.
- measurement.description: Determination of compound Cmax and AUC
- Format: in vivo
- stated.conditions: rat; Sprague-Dawley rats, oral gavage, serum 0.5-4 h; actual oral dose (mg/kg) given

Solved cases (5 shown):
CN1Cc2c(Cl)cc(Cl)cc2C(c2cccc(S(=O)(=O)NCCOCCOCCNC(=O)[C@H](O)[C@@H](O)C(=O)NCCOCCOCCNS(=O)(=O)c3cccc(C4CN(C)Cc5c(Cl)cc(Cl)cc54)c3)c2)C1 (stereo partly drawn) | < 1 ng·h/mL
CN1Cc2c(Cl)cc(Cl)cc2C(c2cccc(S(=O)(=O)NCCOCCOCCOCCNC(=O)CN(CC(=O)NCCOCCOCCOCCNS(=O)(=O)c3cccc(C4CN(C)Cc5c(Cl)cc(Cl)cc54)c3)CC(=O)NCCOCCOCCOCCNS(=O)(=O)c3cccc(C4CN(C)Cc5c(Cl)cc(Cl)cc54)c3)c2)C1 (stereo not drawn) | < 5 ng·h/mL
CN1Cc2c(Cl)cc(Cl)cc2C(c2cccc(S(=O)(=O)NCCOCCOCCNC(=O)NCCOCCOCCNS(=O)(=O)c3cccc(C4CN(C)Cc5c(Cl)cc(Cl)cc54)c3)c2)C1 (stereo not drawn) | < 5 ng·h/mL
CN1Cc2c(Cl)cc(Cl)cc2C(c2ccc(S(=O)(=O)NCCOCCOCCNC(=O)CCC(=O)NCCOCCOCCNS(=O)(=O)c3ccc(C4CN(C)Cc5c(Cl)cc(Cl)cc54)cc3)cc2)C1 (stereo not drawn) | < 4 ng·h/mL
CN1Cc2c(Cl)cc(Cl)cc2C(c2cccc(NC(=O)CCOCCOCCOCCNC(=O)[C@H](O)[C@@H](O)C(=O)NCCOCCOCCOCCC(=O)Nc3cccc(C4CN(C)Cc5c(Cl)cc(Cl)cc54)c3)c2)C1 (stereo partly drawn) | < 35 ng·h/mL

Req: Which AUC reading was recorded for the compound CN1Cc2c(Cl)cc(Cl)cc2C(c2cccc(S(=O)(=O)NCCOCCOCCOCCOCCOCCOCCOCCOCCOCCOCCNC(=O)CCOCCOCCOCCOCCOCCOCCOCCOCCOCCC(=O)NCCOCCOCCOCCOCCOCCOCCOCCOCCOCCOCCNS(=O)(=O)c3cccc(C4CN(C)Cc5c(Cl)cc(Cl)cc54)c3)c2)C1 (stereo not drawn) ?
Resp: < 10 ng·h/mL

Req: Which AUC reading was recorded for the compound CN1Cc2c(Cl)cc(Cl)cc2C(c2cccc(S(=O)(=O)NCCOCCOCCOCCNC(=O)c3cc(C(=O)NCCOCCOCCOCCNS(=O)(=O)c4cccc(C5CN(C)Cc6c(Cl)cc(Cl)cc65)c4)cc(C(=O)NCCOCCOCCOCCNS(=O)(=O)c4cccc(C5CN(C)Cc6c(Cl)cc(Cl)cc65)c4)c3)c2)C1 (stereo not drawn) ?
Resp: < 2 ng·h/mL

Req: Which AUC reading was recorded for the compound CN1Cc2c(Cl)cc(Cl)cc2C(c2cccc(S(=O)(=O)NCCOCCOCCOCCNC(=O)C(=O)NCCOCCOCCOCCNS(=O)(=O)c3cccc(C4CN(C)Cc5c(Cl)cc(Cl)cc54)c3)c2)C1 (stereo not drawn) ?
Resp: < 19 ng·h/mL

Req: Which AUC reading was recorded for the compound CN1Cc2c(Cl)cc(Cl)cc2C(c2cccc(S(=O)(=O)NCCOCCOCCOCCOCCOCCOCCOCCOCCOCCOCCN)c2)C1 (stereo not drawn) ?
Resp: < 5 ng·h/mL

Req: Which AUC reading was recorded for the compound CN1Cc2c(Cl)cc(Cl)cc2C(c2ccc(S(=O)(=O)NCCOCCOCCOCCNC(=O)c3ccc(C(=O)NCCOCCOCCOCCNS(=O)(=O)c4ccc(C5CN(C)Cc6c(Cl)cc(Cl)cc65)cc4)cc3)cc2)C1 (stereo not drawn) ?
Resp: < 6.8 ng·h/mL

Req: Which AUC reading was recorded for the compound CN1Cc2c(Cl)cc(Cl)cc2C(c2cccc(S(=O)(=O)NCCOCCOCCOCCNC(=O)NCCCCNC(=O)NCCOCCOCCOCCNS(=O)(=O)c3cccc(C4CN(C)Cc5c(Cl)cc(Cl)cc54)c3)c2)C1 (stereo not drawn) ?
Resp: < 5 ng·h/mL

Req: Which AUC reading was recorded for the compound CN1Cc2c(Cl)cc(Cl)cc2[C@@H](c2ccc(S(=O)(=O)NCCOCCOCCOCCNC(=O)C(O)C(O)C(=O)NCCOCCOCCOCCNS(=O)(=O)c3ccc([C@H]4CN(C)Cc5c(Cl)cc(Cl)cc54)cc3)cc2)C1 (single isomer, unassigned) ?
Resp: < 5 ng·h/mL

Req: Which AUC reading was recorded for the compound CN1Cc2c(Cl)cc(Cl)cc2C(c2ccc(S(=O)(=O)NCCOCCOCCNC(=O)c3ccc(C(=O)NCCOCCOCCNS(=O)(=O)c4ccc(C5CN(C)Cc6c(Cl)cc(Cl)cc65)cc4)cc3)cc2)C1 (stereo not drawn) ?
Resp: < 3 ng·h/mL

Req: Which AUC reading was recorded for the compound CN1Cc2c(Cl)cc(Cl)cc2C(c2cccc(S(=O)(=O)NCCOCCOCCOCCNC(=O)c3cccc(C(=O)NCCOCCOCCOCCNS(=O)(=O)c4cccc(C5CN(C)Cc6c(Cl)cc(Cl)cc65)c4)c3)c2)C1 (stereo not drawn) ?
Resp: < 5 ng·h/mL

Req: Which AUC reading was recorded for the compound CN1Cc2c(Cl)cc(Cl)cc2C(c2ccc(S(=O)(=O)NCCOCCOCCNC(=O)C(O)C(O)C(=O)NCCOCCOCCNS(=O)(=O)c3ccc(C4CN(C)Cc5c(Cl)cc(Cl)cc54)cc3)cc2)C1 (stereo not drawn) ?
Resp: < 2 ng·h/mL

Req: Which AUC reading was recorded for the compound CN(CC(=O)NCCOCCOCCNS(=O)(=O)c1ccc(C2CN(C)Cc3c(Cl)cc(Cl)cc32)cc1)CC(=O)NCCOCCOCCNS(=O)(=O)c1ccc(C2CN(C)Cc3c(Cl)cc(Cl)cc32)cc1 (stereo not drawn) [Example 185, tris(2,2,2-trifluoroacetate)] ?
Resp: < 2 ng·h/mL

Req: Which AUC reading was recorded for the compound CN1Cc2c(Cl)cc(Cl)cc2C(c2ccc(S(=O)(=O)NCCOCCOCCNC(=O)COCC(=O)NCCOCCOCCNS(=O)(=O)c3ccc(C4CN(C)Cc5c(Cl)cc(Cl)cc54)cc3)cc2)C1 (stereo not drawn) ?
Resp: < 2 ng·h/mL

Req: Which AUC reading was recorded for the compound CN1Cc2c(Cl)cc(Cl)cc2C(c2cccc(S(=O)(=O)NCCOCCOCCOCCNC(=O)c3ccc(C(=O)NCCOCCOCCOCCNS(=O)(=O)c4cccc(C5CN(C)Cc6c(Cl)cc(Cl)cc65)c4)cc3)c2)C1 (stereo not drawn) ?
Resp: < 8.3 ng·h/mL
